From various publications: Ki for ITK (Homo sapiens, UniProt Q08881).
readout label: Ki

>>> df
                                   compound                 experimental_system          result
0  O=C(Cc1ccccc1)Nc1nc(-c2c[nH]c3ncccc23)cs1  ITK (Homo sapiens, UniProt Q08881)  500 to 5000 nM
1  CCN1CCN(C(=O)c2ccc(-c3cnc4c(-c5ccccn5)c(N)nn4c3)nc2)CC1  ITK (Homo sapiens, UniProt Q08881)        < 500 nM
2  CN(C)Cc1ccc(-c2cnc3c(-c4ccccn4)c(N)nn3c2)cc1  ITK (Homo sapiens, UniProt Q08881)        < 500 nM
3  Cc1cnc2c(-c3cc(NC(C)CO)ncn3)c(N)nn2c1 (stereo not drawn)  ITK (Homo sapiens, UniProt Q08881)  500 to 5000 nM
4  CN1CCCN(C(=O)c2cccc(-c3cnc4c(-c5ccccn5)c(N)nn4c3)n2)CC1  ITK (Homo sapiens, UniProt Q08881)  500 to 5000 nM
5  Nc1nn2cc(-c3ccc(CN4CCOCC4)cc3)cnc2c1-c1ccccn1  ITK (Homo sapiens, UniProt Q08881)        < 500 nM
6  Nc1nn2cc(-c3ccncn3)cnc2c1C(=O)N[C@H](CO)c1ccccc1  ITK (Homo sapiens, UniProt Q08881)  500 to 5000 nM
7  O=C(Nc1cnn(Cc2ccccc2)c1)c1n[nH]c2c1CC1(CC2)COC1  ITK (Homo sapiens, UniProt Q08881)          240 nM
8       Nc1nn2cc(CCc3ccccc3)cnc2c1-c1ccccn1  ITK (Homo sapiens, UniProt Q08881)  500 to 5000 nM
